# IC50 listing for each entry below
Tested on: IFNα-stimulated STAT-dependent luciferase reporter in Kit225 T cells
Assay: Kit225 T cell assay, IFNα stimulated STAT-dependent luciferase reporter
Format: cell-based, human
Details: Kit225 T cells, 200 U/mL human recombinant IFNα, 5-6 hours, luciferase; read-out: IFNα (Kit225 T Cell Inhibition Data)
The answer is to be given in nM; state only the numeric part.

# example entries with known answers
1. CNC(=O)c1cnc(Nc2cc(C#N)ccn2)cc1Nc1ccccc1S(C)(=O)=O [Example 5] :: 50
2. CNC(=O)c1cnc(Nc2cc3ccccc3cn2)cc1Nc1ccccc1C(N)=O :: 370
3. CNC(=O)c1cnc(Nc2ccc(F)cn2)cc1Nc1ccc(-c2nnco2)cc1S(C)(=O)=O :: 1020
4. CNC(=O)c1cnc(Nc2ccc(F)cn2)cc1Nc1ccc(C(=O)N2CCOCC2)cc1C :: 1110

input: Missing value: IC50, IFNα-stimulated STAT-dependent luciferase reporter in Kit225 T cells, entry CNC(=O)c1cnc(Nc2ccc(F)cn2)cc1Nc1ccccc1OC(F)(F)F . Fill in?
output: 1310

input: For CCNC(=O)c1cccc(Nc2cc(Nc3cc(C)c(F)cn3)ncc2C(=O)NC)c1OC then?
output: 30

input: Same question, CNC(=O)c1cnc(Nc2ccc3ccccc3n2)cc1Nc1ccccc1S(C)(=O)=O this time
output: 30

input: What would you report for CCc1ccc(Nc2cc(Nc3ccc(N4CCOCC4)cn3)ncc2C(=O)NC)cc1 ?
output: 1310

----------
Target: recombinantly expressed His-tagged protein corresponding to amino acids 575-869 of human Tyk2 (Homo sapiens, UniProt P29597)
Construct: corresponding to amino acids 575-869 of human Tyk2
Sequence (P29597 575-869): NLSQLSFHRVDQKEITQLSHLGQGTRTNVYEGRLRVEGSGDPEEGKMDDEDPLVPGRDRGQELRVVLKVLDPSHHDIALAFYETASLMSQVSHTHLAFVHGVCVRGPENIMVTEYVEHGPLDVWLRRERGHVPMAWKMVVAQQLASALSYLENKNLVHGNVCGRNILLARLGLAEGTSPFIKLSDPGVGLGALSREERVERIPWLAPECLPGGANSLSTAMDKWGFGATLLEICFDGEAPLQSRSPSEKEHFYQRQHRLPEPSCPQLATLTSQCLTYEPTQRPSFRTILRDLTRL
Test: Probe displacement assay (scintillation proximity, [3H] probe)
Conditions: 2.5 nM Tyk2 (575-869), 40 nM radiolabeled probe, 30 minutes at room temperature
observable: pEC50
pEC50 field: float, defined as -log10 of concentration (mol/L).

Sample answers from the record:
1. CNC(=O)c1cnc(Nc2ccc(N3CCOCC3)cn2)cc1Nc1ccccc1SC :: 7.70
2. CNC(=O)c1cnc(Nc2ccc(CO)cn2)cc1Nc1ccccc1C(N)=O :: 8.26
3. CNC(=O)c1cnc(Nc2ccc(C(=O)NC3CC3)cn2)cc1Nc1ccc(Cl)cc1OC :: 6.81
4. CNC(=O)c1cnc(Nc2cc(C#N)ccn2)cc1Nc1cccc(F)c1C(N)=O :: 7.73

input: Need pEC50 of CNC(=O)c1cnc(Nc2ccc(F)cn2)cc1Nc1cc(F)cc(F)c1OC , thanks.
output: 7.60

input: Also need CNC(=O)c1cnc(Nc2ccc(C)cn2)cc1Nc1cc(F)cc(F)c1OC , thanks.
output: 7.67

input: Next molecule up: [2H]C([2H])([2H])NC(=O)c1cnc(Nc2ccccn2)cc1Nc1cccc(-c2ncc(F)cn2)c1OC
output: 8.96

input: Now give it for [2H]C([2H])([2H])NC(=O)c1cnc(Nc2ccc(F)cn2)cc1Nc1ccccc1S(C)(=O)=O too.
output: 8.19

input: Another: [2H]C([2H])([2H])NC(=O)c1cnc(Nc2ccc(C)nn2)cc1Nc1cccc(-c2csc(C)n2)c1OC
output: 8.10

input: Repeat with CNC(=O)c1cnc(Nc2ccc(F)cn2)cc1Nc1cc(Cl)ccc1OC
output: 7.27
